Assign MRT to each entry below.
- assayProtocol: MRT in Sprague-Dawley rat plasma at 1 mg/kg, sc by LC/MS analysis
- Assay type: ADME, organism-based
Where a SMILES comes first, the peptide text is derived from it. [ ]: non-standard residue; d: D form. Phe(3-F) = N[C@@H](Cc1cccc(F)c1)C(=O)O; Arg(Me) = CNC(=N)NCCC[C@H](N)C(=O)O; azaGly = NNC(=O)O
Give the value, in units of h, as a plain number.

**Query** Need MRT of CNC(=N)NCCC[C@H](NC(=O)[C@H](CC(C)C)NC(=O)NNC(=O)[C@H](Cc1cccc(F)c1)NC(=O)[C@@H](NC(=O)[C@H](CC(N)=O)NC(=O)[C@H](CCC(=O)O)NC(=O)[C@@H](Cc1ccc(O)cc1)NC(C)=O)[C@@H](C)O)C(=O)N[C@@H](Cc1c[nH]c2ccccc12)C(N)=O (Ac-[dY]ENT[Phe(3-F)][azaGly]L[Arg(Me)]W-NH2) , thanks.
**Result** 1.09

**Query** Item CNC(=N)NCCC[C@H](NC(=O)[C@H](CC(C)C)NC(=O)NNC(=O)[C@H](Cc1ccccc1)NC(=O)[C@@H](NC(=O)[C@H](CC(N)=O)NC(=O)[C@@H]1C[C@@H](O)CN1C(=O)[C@@H](Cc1ccc(O)cc1)NC(C)=O)[C@@H](C)O)C(=O)N[C@@H](Cc1c[nH]c2ccccc12)C(N)=O [TAK-448] has what recorded MRT?
**Result** 1.21
